Listed molecules paired with reported Exposure/dose during ipGTT in ob/ob mice
Experiment: Exposure during ipGTT in ob/ob mice
Type: in vivo, mouse
Conditions: sc injection
Where a SMILES comes first, the peptide text is derived from it. [ ]: non-standard residue; d: D form. ξ: configuration not given here. Ala(6-(2-MePh)pyridin-3-yl) = Cc1ccccc1-c1ccc(C[C@H](N)C(=O)O)cn1; Bip(2'-Et-4'-OMe) = CCc1cc(OC)ccc1-c1ccc(C[C@H](N)C(=O)O)cc1; Bip(2'-Me) = Cc1ccccc1-c1ccc(C[C@H](N)C(=O)O)cc1; ξαMePhe(2-F) = CC(N)(Cc1ccccc1F)C(=O)O; Thr(3ξ) = CC(O)[C@H](N)C(=O)O; ξαMeP = CC1(C(=O)O)CCCN1; Aib = CC(C)(N)C(=O)O
Entry rule: numbers only, all in nM * h/nmol/kg.

Q: Could you tell me which Exposure/dose during ipGTT in ob/ob mice is on file for CCc1cc(OC)ccc1-c1ccc(C[C@H](NC(=O)[C@H](CC(=O)O)NC(=O)[C@H](CO)NC(=O)[C@@H](NC(=O)C(C)(Cc2ccccc2F)NC(=O)[C@@H](NC(=O)CNC(=O)[C@H](CCC(=O)O)NC(=O)C(C)(C)NC(=O)[C@@H](N)Cc2c[nH]cn2)C(C)O)C(C)O)C(=O)N[C@@H](Cc2ccc(-c3ccccc3C)cc2)C(N)=O)cc1 (some centres unmarked) [Compound I, reference compound] (H-H[Aib]EG[Thr(3ξ)][ξαMePhe(2-F)][Thr(3ξ)]SD[Bip(2'-Et-4'-OMe)][Bip(2'-Me)]-NH2) ?
A: 22

Continue with the molecule presented below.
Q: # input molecule: CCc1cc(OC)ccc1-c1ccc(C[C@H](NC(=O)[C@H](CC(=O)O)NC(=O)[C@H](CO)NC(=O)[C@@H](NC(=O)C(C)(Cc2ccccc2F)NC(=O)[C@@H](NC(=O)CNC(=O)[C@H](CCC(=O)O)NC(=O)C2(C)CCCN2C(=O)[C@@H](N)Cc2c[nH]cn2)[C@@H](C)O)[C@@H](C)O)C(=O)N[C@@H](Cc2ccc(-c3ccccc3C)nc2)C(N)=O)cc1 (some centres unmarked) [SEQ ID NO: 118] (H-H[ξαMeP]EGT[ξαMePhe(2-F)]TSD[Bip(2'-Et-4'-OMe)][Ala(6-(2-MePh)pyridin-3-yl)]-NH2) ; wanted: its Exposure/dose during ipGTT in ob/ob mice
A: 4.4

---

Assay: Dog pharmacokinetic study
Type: in vivo
Conditions: dog, plasma, sc, 67 ug/kg; male beagle dogs, subcutaneous 67 μg/kg
Where a SMILES comes first, the peptide text is derived from it. [ ]: non-standard residue; d: D form. ξ: configuration not given here. Ala(6-(2-MePh)pyridin-3-yl) = Cc1ccccc1-c1ccc(C[C@H](N)C(=O)O)cn1; Bip(2'-Et-4'-OMe) = CCc1cc(OC)ccc1-c1ccc(C[C@H](N)C(=O)O)cc1; ξαMePhe(2-F) = CC(N)(Cc1ccccc1F)C(=O)O; Thr(3ξ) = CC(O)[C@H](N)C(=O)O; Aib = CC(C)(N)C(=O)O
property.measured: AUC (µM·h)
Lab book: enter the figure in µM·h, no units written.

Q: I would be grateful if you could share the reported AUC for CCc1cc(OC)ccc1-c1ccc(C[C@H](NC(=O)[C@H](CC(=O)O)NC(=O)[C@H](CO)NC(=O)[C@@H](NC(=O)C(C)(Cc2ccccc2F)NC(=O)[C@@H](NC(=O)CNC(=O)[C@H](CCC(=O)O)NC(=O)C(C)(C)NC(=O)[C@@H](N)Cc2c[nH]cn2)C(C)O)C(C)O)C(=O)N[C@@H](Cc2ccc(-c3ccccc3C)nc2)C(N)=O)cc1 (stereo partly shown) [SEQ ID NO: 9] (H-H[Aib]EG[Thr(3ξ)][ξαMePhe(2-F)][Thr(3ξ)]SD[Bip(2'-Et-4'-OMe)][Ala(6-(2-MePh)pyridin-3-yl)]-NH2) .
A: 0.452

---

Consider the following compounds and their measured Vd readings.
Assay: Dog pharmacokinetic study
Type: in vivo
Conditions: dog, plasma, 67 ug/kg; male beagle dogs, intravenous 67 μg/kg; read-out: Vss
Where a SMILES comes first, the peptide text is derived from it. [ ]: non-standard residue; d: D form. The star is where a group is joined. ξ: configuration not given here. Ala(6-(2-MePh)pyridin-3-yl) = Cc1ccccc1-c1ccc(C[C@H](N)C(=O)O)cn1; Phe(4-(2-Et-4-HO-Ph)) = CCc1cc(O)ccc1-c1ccc(C[C@H](N)C(=O)O)cc1; Bip(2'-Et-4'-OMe) = CCc1cc(OC)ccc1-c1ccc(C[C@H](N)C(=O)O)cc1; ξαMePhe(2-F) = CC(N)(Cc1ccccc1F)C(=O)O; Thr(3ξ) = CC(O)[C@H](N)C(=O)O; ξαMeP = CC1(C(=O)O)CCCN1; Aib = CC(C)(N)C(=O)O; Moc = COC(=O)*
Enter your answer as a number in L/kg; do not include the unit.

Q: Would you mind telling me what Vd value was observed for CCc1cc(O)ccc1-c1ccc(C[C@H](NC(=O)[C@H](CC(=O)O)NC(=O)[C@H](CO)NC(=O)[C@@H](NC(=O)C(C)(Cc2ccccc2F)NC(=O)[C@@H](NC(=O)CNC(=O)[C@H](CCC(=O)O)NC(=O)C2(C)CCCN2C(=O)[C@H](Cc2c[nH]cn2)NC(=O)OC)[C@@H](C)O)[C@@H](C)O)C(=O)N[C@@H](Cc2ccc(-c3ccccc3C)nc2)C(N)=O)cc1 (some centres unmarked) [SEQ ID NO: 158] (Moc-H[ξαMeP]EGT[ξαMePhe(2-F)]TSD[Phe(4-(2-Et-4-HO-Ph))][Ala(6-(2-MePh)pyridin-3-yl)]-NH2) ?
A: 0.15

Continue with the compound presented below.
Q: For the compound shown here, CCc1cc(OC)ccc1-c1ccc(C[C@H](NC(=O)[C@H](CC(=O)O)NC(=O)[C@H](CO)NC(=O)[C@@H](NC(=O)C(C)(Cc2ccccc2F)NC(=O)[C@@H](NC(=O)CNC(=O)[C@H](CCC(=O)O)NC(=O)C(C)(C)NC(=O)[C@@H](N)Cc2c[nH]cn2)C(C)O)C(C)O)C(=O)N[C@@H](Cc2ccc(-c3ccccc3C)nc2)C(N)=O)cc1 (some centres unmarked) [SEQ ID NO: 9] (H-H[Aib]EG[Thr(3ξ)][ξαMePhe(2-F)][Thr(3ξ)]SD[Bip(2'-Et-4'-OMe)][Ala(6-(2-MePh)pyridin-3-yl)]-NH2) , give the reported Vd.
A: 0.21

---

Molecular target: Mouse GLP-1 Receptor (Mus musculus, UniProt O35659)
Construct: expressed in transfected cells; host or cells: CHO cells
Sequence (O35659 22-463): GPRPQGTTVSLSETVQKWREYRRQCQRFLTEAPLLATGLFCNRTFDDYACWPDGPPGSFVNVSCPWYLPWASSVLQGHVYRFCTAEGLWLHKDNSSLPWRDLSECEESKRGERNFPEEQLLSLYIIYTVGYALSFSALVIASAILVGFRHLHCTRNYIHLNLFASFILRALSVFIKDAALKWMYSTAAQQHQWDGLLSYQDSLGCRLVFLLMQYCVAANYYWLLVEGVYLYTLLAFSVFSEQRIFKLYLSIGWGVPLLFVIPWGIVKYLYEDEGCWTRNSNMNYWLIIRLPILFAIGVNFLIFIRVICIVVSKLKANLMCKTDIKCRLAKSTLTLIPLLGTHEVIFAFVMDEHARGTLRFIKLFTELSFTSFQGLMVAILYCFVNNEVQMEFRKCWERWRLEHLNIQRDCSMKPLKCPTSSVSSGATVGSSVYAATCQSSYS
Test: Stimulation of cAMP synthesis in CHO cells expressing mouse GLP-1 receptor
Type: cell-based
property.measured: Mean Hill
Reply with just the number.

Q: For the molecule CCc1cc(O)ccc1-c1ccc(C[C@H](NC(=O)[C@H](CC(=O)O)NC(=O)[C@H](Cc2c[nH]cn2)NC(=O)[C@@H](NC(=O)[C@](C)(Cc2ccccc2F)NC(=O)[C@@H](NC(=O)CNC(=O)[C@H](CCC(=O)O)NC(=O)[C@]2(C)CCCN2C(=O)C(Cc2c[nH]cn2)OC)[C@@H](C)O)[C@@H](C)O)C(=O)N[C@@H](Cc2ccc(-c3ccccc3C)nc2)C(N)=O)cc1 (single isomer, unassigned) [SEQ ID NO: 176] , what Mean Hill is on record?
A: 1.9

New cases:
Q: Record request: Mean Hill value, item CCc1cc(O)ccc1-c1ccc(C[C@H](NC(=O)[C@H](CC(=O)O)NC(=O)[C@H](CO)NC(=O)[C@@H](NC(=O)[C@](C)(Cc2ccccc2F)NC(=O)[C@@H](NC(=O)CNC(=O)[C@H](CCC(=O)O)NC(=O)[C@]2(C)CCCN2C(=O)C(Cc2c[nH]cn2)OC)[C@@H](C)O)[C@@H](C)O)C(=O)N[C@@H](Cc2ccc(-c3ccccc3C)nc2)C(N)=O)cc1 (single isomer, unassigned) [SEQ ID NO: 173]
A: 1.4

Q: Quick one: Mean Hill of CCc1cc(O)ccc1-c1ccc(C[C@H](NC(=O)[C@H](CC(=O)O)NC(=O)[C@H](CO)NC(=O)[C@@H](NC(=O)[C@](C)(Cc2ccccc2F)NC(=O)[C@@H](NC(=O)CNC(=O)[C@H](CCC(=O)O)NC(=O)[C@]2(C)CCCN2C(=O)C(Cc2c[nH]cn2)OC)[C@@H](C)O)[C@@H](C)O)C(=O)N[C@@H](Cc2ccc(-c3ccccc3C)nc2)C(N)=O)cc1 (single isomer, unassigned) [SEQ ID NO: 174] ?
A: 2.1
